Source: patent US5071749A

Below is a list of entries, each paired with its recorded MIC value.
- Tested on: Staphylococcus aureus SR3131
- assay-summary: In vitro antibacterial activity, agar dilution method (MIC)
- Type: cell-based
- measurement-parameters: Staphylococcus aureus SR3131, methicillin-resistant, 37° C., 18-20 hrs

- molecule: "CNC(CC(C)C)C(=O)NC1C(=O)NC(CC(N)=O)C(=O)NC2C(=O)NC3C(=O)NC(C(=O)NC(C(=O)O)c4cc(O)cc(O)c4-c4cc3ccc4O)C(OC3CC(C)(N)C(O)C(C)O3)c3ccc(c(Cl)c3)Oc3cc2cc(c3OC2OC(CO)C(O)C(O)C2OC2CC(C)(N)C(O)C(C)O2)Oc2ccc(cc2Cl)C1O (stereo not shown) [PA-45052-A]"
  MIC: "0.39 µg/mL"
- molecule: "CC(C)CC(C(=O)NC1C(=O)NC(CC(N)=O)C(=O)NC2C(=O)NC3C(=O)NC(C(=O)NC(C(=O)O)c4cc(O)cc(O)c4-c4cc3ccc4O)C(OC3CC(C)(N)C(O)C(C)O3)c3ccc(c(Cl)c3)Oc3cc2cc(c3OC2OC(CO)C(O)C(O)C2O)Oc2ccc(cc2Cl)C1O)N(C)C (stereo not shown) [PA-45052-E]"
  MIC: "0.78 µg/mL"
- molecule: "CC(C)CC(C(=O)NC1C(=O)NC(CC(N)=O)C(=O)NC2C(=O)NC3C(=O)NC(C(=O)NC(C(=O)O)c4cc(O)cc(O)c4-c4cc3ccc4O)C(OC3CC(C)(N)C(O)C(C)O3)c3ccc(c(Cl)c3)Oc3cc2cc(c3OC2OC(CO)C(O)C(O)C2OC2CC(C)(N)C(O)C(C)O2)Oc2ccc(cc2Cl)C1O)N(C)C (stereo not shown) [PA-45052-D]"
  MIC: "0.39 µg/mL"
- molecule: "CNC(CC(C)C)C(=O)NC1C(=O)NC(CC(N)=O)C(=O)NC2C(=O)NC3C(=O)NC(C(=O)NC(C(=O)O)c4cc(O)cc(O)c4-c4cc3ccc4O)C(OC3CC(C)(N)C(O)C(C)O3)c3ccc(c(Cl)c3)Oc3cc2cc(c3OC2OC(CO)C(O)C(O)C2O)Oc2ccc(cc2Cl)C1O (stereo not shown) [PA-45052-B]"
  MIC: "0.39 µg/mL"

###

- System: Streptococcus agalactiae SR 1247
- assay-summary: In vitro antibacterial activity, agar dilution method (MIC)
- measurement-parameters: horse serum 0.5%, 37° C., 18-20 hrs
Listing of recorded MIC by entry.
observed-property: MIC (mg/L)

- molecule: "CC(C)CC(C(=O)NC1C(=O)NC(CC(N)=O)C(=O)NC2C(=O)NC3C(=O)NC(C(=O)NC(C(=O)O)c4cc(O)cc(O)c4-c4cc3ccc4O)C(OC3CC(C)(N)C(O)C(C)O3)c3ccc(c(Cl)c3)Oc3cc2cc(c3OC2OC(CO)C(O)C(O)C2O)Oc2ccc(cc2Cl)C1O)N(C)C (stereo not shown)"
  u: "mg/L"
  result-value: 0.39
- molecule: "CNC(CC(C)C)C(=O)NC1C(=O)NC(CC(N)=O)C(=O)NC2C(=O)NC3C(=O)NC(C(=O)NC(C(=O)O)c4cc(O)cc(O)c4-c4cc3ccc4O)C(OC3CC(C)(N)C(O)C(C)O3)c3ccc(c(Cl)c3)Oc3cc2cc(c3OC2OC(CO)C(O)C(O)C2O)Oc2ccc(cc2Cl)C1O (stereo not shown)"
  u: "mg/L"
  result-value: 0.39
- molecule: "CC(C)CC(C(=O)NC1C(=O)NC(CC(N)=O)C(=O)NC2C(=O)NC3C(=O)NC(C(=O)NC(C(=O)O)c4cc(O)cc(O)c4-c4cc3ccc4O)C(OC3CC(C)(N)C(O)C(C)O3)c3ccc(c(Cl)c3)Oc3cc2cc(c3OC2OC(CO)C(O)C(O)C2OC2CC(C)(N)C(O)C(C)O2)Oc2ccc(cc2Cl)C1O)N(C)C (stereo not shown)"
  u: "mg/L"
  result-value: 0.2
- molecule: "CNC(CC(C)C)C(=O)NC1C(=O)NC(CC(N)=O)C(=O)NC2C(=O)NC3C(=O)NC(C(=O)NC(C(=O)O)c4cc(O)cc(O)c4-c4cc3ccc4O)C(OC3CC(C)(N)C(O)C(C)O3)c3ccc(c(Cl)c3)Oc3cc2cc(c3OC2OC(CO)C(O)C(O)C2OC2CC(C)(N)C(O)C(C)O2)Oc2ccc(cc2Cl)C1O (stereo not shown)"
  u: "mg/L"
  result-value: 0.2

###

MIC listing for selected compounds.
- Tested on: Staphylococcus aureus PDA 209P JC-1
- assay-summary: In vitro antibacterial activity, agar dilution method (MIC)
- measurement-parameters: 37° C., 18-20 hrs
observed-property: MIC

- compound: "CC(C)CC(C(=O)NC1C(=O)NC(CC(N)=O)C(=O)NC2C(=O)NC3C(=O)NC(C(=O)NC(C(=O)O)c4cc(O)cc(O)c4-c4cc3ccc4O)C(OC3CC(C)(N)C(O)C(C)O3)c3ccc(c(Cl)c3)Oc3cc2cc(c3OC2OC(CO)C(O)C(O)C2O)Oc2ccc(cc2Cl)C1O)N(C)C (stereo not shown)"
  result-value: "0.39 µg/mL"
- compound: "CNC(CC(C)C)C(=O)NC1C(=O)NC(CC(N)=O)C(=O)NC2C(=O)NC3C(=O)NC(C(=O)NC(C(=O)O)c4cc(O)cc(O)c4-c4cc3ccc4O)C(OC3CC(C)(N)C(O)C(C)O3)c3ccc(c(Cl)c3)Oc3cc2cc(c3OC2OC(CO)C(O)C(O)C2OC2CC(C)(N)C(O)C(C)O2)Oc2ccc(cc2Cl)C1O (stereo not shown)"
  result-value: "0.2 µg/mL"
- compound: "CNC(CC(C)C)C(=O)NC1C(=O)NC(CC(N)=O)C(=O)NC2C(=O)NC3C(=O)NC(C(=O)NC(C(=O)O)c4cc(O)cc(O)c4-c4cc3ccc4O)C(OC3CC(C)(N)C(O)C(C)O3)c3ccc(c(Cl)c3)Oc3cc2cc(c3OC2OC(CO)C(O)C(O)C2O)Oc2ccc(cc2Cl)C1O (stereo not shown)"
  result-value: "0.39 µg/mL"
- compound: "CC(C)CC(C(=O)NC1C(=O)NC(CC(N)=O)C(=O)NC2C(=O)NC3C(=O)NC(C(=O)NC(C(=O)O)c4cc(O)cc(O)c4-c4cc3ccc4O)C(OC3CC(C)(N)C(O)C(C)O3)c3ccc(c(Cl)c3)Oc3cc2cc(c3OC2OC(CO)C(O)C(O)C2OC2CC(C)(N)C(O)C(C)O2)Oc2ccc(cc2Cl)C1O)N(C)C (stereo not shown)"
  result-value: "0.2 µg/mL"
